Target: Neu5Ac(a2-3)Gal(b1-4)GlcNAc(b1-6)[Gal(b1-3)]GalNAc
Experiment: glycan array binding signal (z-score within array); higher = stronger binding
Details: glycan notation: IUPAC condensed, linker removed
This is one part of a sample in which the strongest signals are shown more often than they occur.
parameter measured: glycan array binding signal (z-score)
Give only the figure.

Reported glycan array binding signal (z-score) ( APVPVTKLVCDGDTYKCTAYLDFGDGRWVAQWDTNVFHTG [PhoSpL (Pholiota squarrosa)] ) = 0.254

Reported glycan array binding signal (z-score) ( Arath Fbox LD (Arabidopsis thaliana) (protein) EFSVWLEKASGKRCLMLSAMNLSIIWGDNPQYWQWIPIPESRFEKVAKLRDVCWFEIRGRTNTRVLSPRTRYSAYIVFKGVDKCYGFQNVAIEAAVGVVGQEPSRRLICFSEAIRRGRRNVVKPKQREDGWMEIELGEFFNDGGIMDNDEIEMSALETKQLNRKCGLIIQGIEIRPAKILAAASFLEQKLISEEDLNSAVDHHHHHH ) = -0.599

Reported glycan array binding signal (z-score) ( Mermaid1 (Stilbonema majum) (protein) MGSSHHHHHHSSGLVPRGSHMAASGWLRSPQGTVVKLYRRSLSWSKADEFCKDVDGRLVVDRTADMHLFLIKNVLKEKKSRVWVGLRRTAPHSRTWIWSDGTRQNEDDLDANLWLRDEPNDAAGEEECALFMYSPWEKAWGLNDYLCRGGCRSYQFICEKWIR ) = 5.42

Reported glycan array binding signal (z-score) ( FBG4 (Homo sapiens), Q96EF6 (protein) MGARLSRRRLPADPSLALDALPPELLVQVLSHVPPRSLVTRCRPVCRAWRDIVDGPTVWLLQLARDRSAEGRALYAVAQRCLPSNEDKEEFPLCALARYCLRAPFGRNLIFNSCGEQGFRGWEVEHGGNGWAIEKNLTPVPGAPSQTCFVTSFEWCSKRQLVDLVMEGVWQELLDSAQIEICVADWWGARENCGCVYQLRVRLLDVYEKEVVKFSASPDPVLQWTERGCRQVSHVFTNFGKGIRYVSFEQYGRDVSSWVGHYGALVTHSSVRVRIRLS ) = -0.301

Reported glycan array binding signal (z-score) ( MFG-E8 (Homo sapiens), Q08431 (protein) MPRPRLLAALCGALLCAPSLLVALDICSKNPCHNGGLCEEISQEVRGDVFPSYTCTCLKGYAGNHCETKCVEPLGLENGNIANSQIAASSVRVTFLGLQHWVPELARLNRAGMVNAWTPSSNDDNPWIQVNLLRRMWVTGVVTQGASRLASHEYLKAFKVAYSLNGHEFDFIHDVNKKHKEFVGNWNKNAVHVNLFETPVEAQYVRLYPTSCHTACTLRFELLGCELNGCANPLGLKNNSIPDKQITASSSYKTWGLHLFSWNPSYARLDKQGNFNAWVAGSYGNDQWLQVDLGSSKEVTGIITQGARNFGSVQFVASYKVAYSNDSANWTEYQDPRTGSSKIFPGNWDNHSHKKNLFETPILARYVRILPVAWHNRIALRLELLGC ) = -0.167

Reported glycan array binding signal (z-score) ( Mermaid3 (Stilbonema majum) (protein) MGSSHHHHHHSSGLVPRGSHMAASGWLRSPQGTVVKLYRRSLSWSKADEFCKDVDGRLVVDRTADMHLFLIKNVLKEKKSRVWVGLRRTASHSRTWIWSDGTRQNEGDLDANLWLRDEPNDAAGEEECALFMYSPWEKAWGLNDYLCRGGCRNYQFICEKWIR ) = 4.77

Data origin: the supplement of paper PMC8728848
